Biological target: recombinant hAChE (Homo sapiens, UniProt P22303)
Sequence (P22303 32-614): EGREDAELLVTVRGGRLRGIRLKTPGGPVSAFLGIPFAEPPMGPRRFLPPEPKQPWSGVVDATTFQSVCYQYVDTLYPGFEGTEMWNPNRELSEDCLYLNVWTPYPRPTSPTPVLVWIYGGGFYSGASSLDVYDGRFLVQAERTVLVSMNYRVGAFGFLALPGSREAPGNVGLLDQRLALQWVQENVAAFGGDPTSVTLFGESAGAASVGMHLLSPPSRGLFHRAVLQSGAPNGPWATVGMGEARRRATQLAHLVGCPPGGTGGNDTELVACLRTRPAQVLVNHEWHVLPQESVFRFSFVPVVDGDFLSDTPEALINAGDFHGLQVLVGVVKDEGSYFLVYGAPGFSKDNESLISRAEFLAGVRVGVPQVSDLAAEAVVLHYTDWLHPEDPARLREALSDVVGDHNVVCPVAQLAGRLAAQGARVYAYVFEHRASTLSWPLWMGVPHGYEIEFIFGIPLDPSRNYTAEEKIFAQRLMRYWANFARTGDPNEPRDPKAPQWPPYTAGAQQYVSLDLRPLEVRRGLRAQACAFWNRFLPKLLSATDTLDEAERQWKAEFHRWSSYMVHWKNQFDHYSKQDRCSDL
Test: Kinetic study of hAChE inhibition
Conditions: nonlinear regression, ATCh 156–1250 µM
Experimental: The mode of interaction of the hAChE inhibition was elucidated for 1 and 2 using a kinetic study in order to gain information about the mode of inhibition and the binding site of the isolated alkaloids. […] The kinetic study of hAChE inhibition was performed by using Ellman’s method (described above). […] Vmax and Km values, respectively, of the Michaelis-Menten kinetics and Ki were calculated by non-linear regression from the substrate velocity curves. […]
pKi: −log10 of the molar value.
Reported pKi values for the following compounds.
ATTRIBUTE MEASURED: pKi

| COMPOUND | RESULT NUMBER |
| --- | --- |
| COc1ccc2c(c1OC)CN1CCc3cc4c(cc3[C@H]1[C@H]2C)OCO4 [Compound 1, (+)-thalictricavine] | 6.76 |
| COc1ccc2c(c1OC)CN1CCc3cc4c(cc3[C@H]1C2)OCO4 [Compound 2, (+)-canadine] | 6.89 |

----------
molecular target: human recombinant acetylcholinesterase (hAChE) (Homo sapiens, UniProt P22303); test: biochemical; details: recombinant hAChE, ATCh substrate, pH 7.4, 37 °C; mean ± SEM of three measurements
Sequence (P22303 32-614): as above
pIC50: −log10 of the molar value.
The reader will find reported pIC50 values listed item by item below.

| MOLECULE | SUBJECT OF TEST | pIC50 |
| --- | --- | --- |
| COc1ccc2c(c1OC)CN1CCc3cc4c(cc3[C@H]1C2)OCO4 [Compound 2, (+)-canadine] | human recombinant acetylcholinesterase (hAChE) (Homo sapiens, UniProt P22303) | 6.15 |
| COc1ccc2c(c1OC)CN1CCc3cc4c(cc3[C@H]1[C@H]2C)OCO4 [Compound 1, (+)-thalictricavine] | human recombinant acetylcholinesterase (hAChE) (Homo sapiens, UniProt P22303) | 6.42 |

----------
pIC50 reference
Biological target: human plasma butyrylcholinesterase (hBChE) (Homo sapiens)
Construct: Recombinant hAChE and plasma hBChE were used as sources of cholinesterases; purchased Sigma-Aldrich (Prague, Czech Republic); host or cells: human plasma
Sequence (P06276 29-602): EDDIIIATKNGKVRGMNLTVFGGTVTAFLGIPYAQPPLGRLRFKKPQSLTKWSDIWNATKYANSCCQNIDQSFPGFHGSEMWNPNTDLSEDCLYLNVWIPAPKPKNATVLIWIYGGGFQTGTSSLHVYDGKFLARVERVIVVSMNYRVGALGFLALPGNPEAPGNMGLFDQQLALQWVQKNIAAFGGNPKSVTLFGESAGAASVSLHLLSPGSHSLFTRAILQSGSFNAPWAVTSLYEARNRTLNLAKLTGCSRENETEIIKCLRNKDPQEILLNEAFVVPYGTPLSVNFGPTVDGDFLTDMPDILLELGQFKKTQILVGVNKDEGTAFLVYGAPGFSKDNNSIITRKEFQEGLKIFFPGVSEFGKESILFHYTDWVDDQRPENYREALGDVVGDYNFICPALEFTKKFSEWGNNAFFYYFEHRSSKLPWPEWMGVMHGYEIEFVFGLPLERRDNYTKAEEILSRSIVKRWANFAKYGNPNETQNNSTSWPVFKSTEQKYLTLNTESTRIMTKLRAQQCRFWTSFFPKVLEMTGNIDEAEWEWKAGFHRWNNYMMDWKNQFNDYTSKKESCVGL
Assay: hBChE inhibition, modified Ellman's method
Assay type: biochemical
Conditions: BTCh substrate, pH 7.4, 37 °C, mean ± SEM of three measurements
Protocol: Human recombinant acetylcholinesterase (hAChE; EC 3.1.1.7), human plasma butyrylcholinesterase (hBChE; EC 3.1.1.8), 5,5′-dithiobis(2-nitrobenzoic acid) (Ellman’s reagent, DTNB), phosphate buffer (PB, pH 7.4), dimethyl sulfoxide (DMSO), acetylthiocholine (ATCh), and butyrylthiocholine (BTCh) were purchased from Sigma-Aldrich (Prague, Czech Republic). […] The hAChE and hBChE inhibitory activity of the tested compounds was determined using a modified Ellman’s method. […]
pIC50: −log10 of the molar value.
ATTRIBUTE MEASURED: pIC50

| MOLECULE | ATTRIBUTE MEASURED | RESULT |
| --- | --- | --- |
| COc1ccc2c(c1OC)CN1CCc3cc4c(cc3[C@H]1[C@H]2C)OCO4 [Compound 1, (+)-thalictricavine] | pIC50 | < 4.00 |
| COc1ccc2c(c1OC)CN1CCc3cc4c(cc3[C@H]1C2)OCO4 [Compound 2, (+)-canadine] | pIC50 | < 4.00 |
